Target: Human recombinant PDE2A (hPDE2A) (Homo sapiens)
Construct: His tag (inferred from metal chelate purification); made in house; host or cells: Sf9 insect cells (baculovirus)
Test: In vitro assay PDE2A (SPA, 3H-cGMP hydrolysis)
Type: biochemical
Conditions: read-out: hPDE2A Emax
Metric: Emax (%)
Give bare numbers, in %.

Provide reported Emax for each item, in the same order as listed.
1. Cc1nccc(C(=O)N2CC[C@@H](C)[C@H](c3cc(C(F)F)nc4ncnn34)C2)c1F
2. COc1cc(C(=O)N2CC[C@@H](C)[C@H](c3cc(C(F)F)nc4ncnn34)C2)c(F)c(C)n1

1: 99; 2: 99

====

Target: Human recombinant PDE10A (hPDE10A) (Homo sapiens)
Construct: His tag (inferred from metal chelate purification); made in house; host or cells: Sf9 insect cells (baculovirus)
Sequence (Q9Y233 267-1055): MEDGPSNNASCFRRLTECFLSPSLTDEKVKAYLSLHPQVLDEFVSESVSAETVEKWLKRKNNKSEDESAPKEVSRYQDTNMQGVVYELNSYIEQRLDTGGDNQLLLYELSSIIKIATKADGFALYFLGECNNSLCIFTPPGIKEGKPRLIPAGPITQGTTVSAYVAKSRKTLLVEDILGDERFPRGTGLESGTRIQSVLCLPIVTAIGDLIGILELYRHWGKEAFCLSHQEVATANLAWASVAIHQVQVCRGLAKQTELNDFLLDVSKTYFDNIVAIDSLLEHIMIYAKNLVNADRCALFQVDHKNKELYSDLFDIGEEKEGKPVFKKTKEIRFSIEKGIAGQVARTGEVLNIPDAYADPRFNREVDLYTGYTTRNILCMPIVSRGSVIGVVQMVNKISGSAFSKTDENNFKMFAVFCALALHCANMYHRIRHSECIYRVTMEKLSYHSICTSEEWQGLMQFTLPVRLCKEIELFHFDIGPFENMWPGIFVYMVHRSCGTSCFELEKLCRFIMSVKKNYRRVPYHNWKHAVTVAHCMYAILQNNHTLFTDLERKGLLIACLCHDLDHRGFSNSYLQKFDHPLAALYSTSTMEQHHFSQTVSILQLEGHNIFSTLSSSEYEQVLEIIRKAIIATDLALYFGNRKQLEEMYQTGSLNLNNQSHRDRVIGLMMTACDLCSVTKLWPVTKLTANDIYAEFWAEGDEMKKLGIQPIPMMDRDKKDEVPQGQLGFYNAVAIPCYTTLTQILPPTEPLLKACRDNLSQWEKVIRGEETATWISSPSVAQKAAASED
Test: In vitro assay PDE10A, human clone (SPA, 3H-cAMP hydrolysis)
Format: biochemical
Conditions: human clone (h), default; read-out: hPDE10A2 Emax
Field: Emax. Provide a value for each of the compounds that follow.
Numbers only, in %.

Example entries begin here.
| Test smiles | Emax, % |
| --- | --- |
| C[C@@H]1CCN(C(=O)c2cnc3n2CCCC3)C[C@H]1c1cc(C(F)F)nc2ncnn12 | 90 |
| COc1cc(C(=O)N2CC[C@@H](C)[C@H](c3cc(C(F)F)nc4ncnn34)C2)nc2ccccc12 | 96 |
| Cc1cc(C(=O)N2CC[C@@H](C)[C@H](c3cc(C)nc4ncnn34)C2)cc(C)n1 | 98 |
| COc1ncc(C)cc1C(=O)N1CC[C@@H](C)[C@H](c2cc(C(F)F)nc3ncnn23)C1 | 93 |
| COc1cc(C(=O)N2CC[C@@H](C)[C@H](c3cc(C(F)F)nc4ncnn34)C2)cc(Cl)n1 | 99 |

Provide reported Emax for each item, in the same order as listed.
1. Cc1cc(C(=O)N2CC[C@@H](C)[C@H](c3cc(C(F)F)nc4ncnn34)C2)c(C(F)(F)F)cn1
2. Cc1cc(C(=O)N2CC[C@@H](C)[C@H](c3cc(C(F)F)nc4ncnn34)C2)cnc1C

1: 72; 2: 95

====

Biological target: Human recombinant PDE2A (hPDE2A) (Homo sapiens, UniProt O00408)
Construct: His tag (inferred from metal chelate purification); made in house; host or cells: Sf9 insect cells (baculovirus)
Sequence (O00408 whole entry): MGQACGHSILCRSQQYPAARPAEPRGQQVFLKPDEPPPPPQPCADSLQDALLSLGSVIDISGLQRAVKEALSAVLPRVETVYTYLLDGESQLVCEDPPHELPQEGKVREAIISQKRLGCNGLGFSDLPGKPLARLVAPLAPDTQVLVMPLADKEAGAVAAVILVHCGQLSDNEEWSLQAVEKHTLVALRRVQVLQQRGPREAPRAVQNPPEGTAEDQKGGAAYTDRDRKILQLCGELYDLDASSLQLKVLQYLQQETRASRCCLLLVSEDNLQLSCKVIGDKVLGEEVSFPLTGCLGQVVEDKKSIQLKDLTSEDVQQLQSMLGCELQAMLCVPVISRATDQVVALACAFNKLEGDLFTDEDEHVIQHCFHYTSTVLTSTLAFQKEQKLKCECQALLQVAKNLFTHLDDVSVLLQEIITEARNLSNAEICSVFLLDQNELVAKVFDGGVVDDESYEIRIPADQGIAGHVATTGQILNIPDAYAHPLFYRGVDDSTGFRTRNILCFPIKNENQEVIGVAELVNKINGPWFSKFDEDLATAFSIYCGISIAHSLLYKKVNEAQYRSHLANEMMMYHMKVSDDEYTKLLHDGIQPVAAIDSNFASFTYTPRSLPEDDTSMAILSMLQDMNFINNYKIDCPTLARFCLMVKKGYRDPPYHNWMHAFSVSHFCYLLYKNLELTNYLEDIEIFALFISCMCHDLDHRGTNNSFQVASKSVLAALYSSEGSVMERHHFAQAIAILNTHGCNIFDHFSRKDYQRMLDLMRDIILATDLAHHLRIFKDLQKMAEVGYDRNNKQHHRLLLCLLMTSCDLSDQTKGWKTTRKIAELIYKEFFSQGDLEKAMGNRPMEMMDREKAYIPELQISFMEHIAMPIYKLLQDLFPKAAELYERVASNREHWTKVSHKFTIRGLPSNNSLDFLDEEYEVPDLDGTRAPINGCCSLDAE
Test: In vitro assay PDE2A (SPA, 3H-cGMP hydrolysis)
Type: biochemical
Settings: read-out: hPDE2A Emax
Field: Emax. Provide a value for each of the compounds that follow.
One number for each entry, in %.

| Compound | Assayed system | Number |
| --- | --- | --- |
| Cc1ncoc1C(=O)N1CC[C@@H](C)[C@H](c2cc(C(F)F)nc3ncnn23)C1 [Compound 156] | Human recombinant PDE2A (hPDE2A) (Homo sapiens, UniProt O00408) | 100 |
| Cc1cc(C(=O)N2[C@H]3CC[C@H](c4cc(C(F)F)nc5ncnn45)[C@@H]2CC3)cc(F)c1F [Compound 344] | Human recombinant PDE2A (hPDE2A) (Homo sapiens, UniProt O00408) | 99 |
| C[C@@H]1CCN(C(=O)c2nc3ccccc3o2)C[C@H]1c1cc(C(F)F)nc2ncnn12 [Compound 47] | Human recombinant PDE2A (hPDE2A) (Homo sapiens, UniProt O00408) | 99 |
| Cc1cc(C(=O)N2CC[C@H](C)[C@@](F)(c3cc(C(F)F)nc4ncnn34)C2)cc(C2CC2)n1 [Compound 24a] | Human recombinant PDE2A (hPDE2A) (Homo sapiens, UniProt O00408) | 80 |
| Cc1nn(C)cc1C(=O)N1CC[C@@H](C)[C@H](c2cc(C(F)F)nc3ncnn23)C1 [Compound 198] | Human recombinant PDE2A (hPDE2A) (Homo sapiens, UniProt O00408) | 98 |

Provide reported Emax for each item, in the same order as listed.
1. C[C@@H]1CCN(C(=O)c2ccn(C)c2)C[C@H]1c1cc(C(F)F)nc2ncnn12 [Compound 67]
2. Cc1cc(C(=O)N2CC[C@@H](C)[C@H](c3cc(C(F)F)nc4ncnn34)C2)cc(CO)n1 [Compound 361]

[99, 100]

====

Biological target: PDE2A (Rattus norvegicus, UniProt Q01062)
Construct: Twenty μm-thick striatal sections were cut; from tissue; host or cells: rat brain, striatal sections
Sequence (Q01062 1-928): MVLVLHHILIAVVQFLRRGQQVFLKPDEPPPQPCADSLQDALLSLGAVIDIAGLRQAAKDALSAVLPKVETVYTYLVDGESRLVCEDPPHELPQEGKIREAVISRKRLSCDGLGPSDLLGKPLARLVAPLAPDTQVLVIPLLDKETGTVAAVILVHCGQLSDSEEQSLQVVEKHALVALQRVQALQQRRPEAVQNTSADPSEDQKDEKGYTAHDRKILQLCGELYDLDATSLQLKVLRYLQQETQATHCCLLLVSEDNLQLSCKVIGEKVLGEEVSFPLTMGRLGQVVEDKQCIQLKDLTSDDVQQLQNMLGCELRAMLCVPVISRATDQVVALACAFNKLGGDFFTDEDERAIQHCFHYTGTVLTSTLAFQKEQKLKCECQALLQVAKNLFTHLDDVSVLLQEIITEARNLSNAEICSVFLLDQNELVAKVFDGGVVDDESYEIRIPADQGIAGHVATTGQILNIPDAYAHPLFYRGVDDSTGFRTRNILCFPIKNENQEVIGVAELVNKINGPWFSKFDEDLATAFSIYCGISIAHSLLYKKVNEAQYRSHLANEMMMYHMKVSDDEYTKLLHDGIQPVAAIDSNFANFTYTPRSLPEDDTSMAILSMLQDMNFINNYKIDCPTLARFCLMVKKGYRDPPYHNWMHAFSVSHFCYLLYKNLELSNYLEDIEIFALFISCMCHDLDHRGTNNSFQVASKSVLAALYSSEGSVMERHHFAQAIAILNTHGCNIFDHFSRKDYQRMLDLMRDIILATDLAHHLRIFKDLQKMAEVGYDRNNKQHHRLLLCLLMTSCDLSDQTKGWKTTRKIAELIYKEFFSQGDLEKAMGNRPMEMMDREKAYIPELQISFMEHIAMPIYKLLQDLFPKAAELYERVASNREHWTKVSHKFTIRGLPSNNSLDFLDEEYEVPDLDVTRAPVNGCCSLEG
Assay: PDE2 occupancy by test compounds, ex-vivo autoradiography with [3H]B-17a
Assay type: in vivo, Male Wistar rats
Settings: route PO (oral), drug dose producing 50% receptor occupancy, read-out: PDE Occupancy ED50
Metric: ED50 (mg/kg)
Answers are plain numbers, in mg/kg.

Example entries begin here.
| Test smiles | ED50 (mg/kg) |
| --- | --- |
| COc1c(C)cc(C(=O)N2CC[C@@H](C)[C@H](c3cc(C(F)F)nc4ncnn34)C2)cc1C | 5.67 |
| COc1nc(C)cc(C(=O)N2CC[C@@H](C)[C@H](c3cc(C(F)F)nc4ncnn34)C2)c1F | 11.8 |
| COc1cc(C(=O)N2CC[C@@H](C)[C@H](c3cc(C(F)F)nc4ncnn34)C2)cc(C)n1 | 8.3 |
| CCc1cc(C(=O)N2CC[C@@H](C)[C@H](c3cc(C(F)F)nc4ncnn34)C2)cc(C)n1 | 8.63 |
| COc1cc(C(=O)N2CC[C@@H](C)[C@H](c3cc(C(F)F)nc4ncnn34)C2)cc(Cl)n1 | 4.8 |

Provide reported ED50 for each item, in the same order as listed.
1. Cc1cc(C(=O)N2CC[C@@H](C)[C@H](c3cc(C(F)F)nc4ncnn34)C2)cc(C2CC2)n1
2. Cc1cc(C(=O)N2CC[C@@H](C)[C@H](c3cc(C(F)F)nc4ncnn34)C2)c(F)cn1

1: 7.8; 2: 14.1

====

Target: Human recombinant PDE10A (hPDE10A) (Homo sapiens)
Construct: His tag (inferred from metal chelate purification); made in house; host or cells: Sf9 insect cells (baculovirus)
Assay: In vitro assay PDE10A, human clone (SPA, 3H-cAMP hydrolysis)
Format: biochemical
Settings: human clone by default (no (r) mark); read-out: hPDE10A2 or rPDE10A2 pIC50 (converted)
Description: Rat recombinant PDE10A (rPDE10A2) was expressed in Sf9 cells using a recombinant rPDE10A baculovirus construct. […] Tested compounds were dissolved and diluted in 100% DMSO to a concentration 100 fold of the final concentration in the assay. […] After sedimentation of the beads during 30 minutes the radioactivity was measured in a Perkin Elmer Topcount scintillation counter and results were expressed as cpm. […]
Field 'label' (enum: 1 / 0). Set to 1 when IC50 is strictly under 600 nM; else 0.

Regarding `O=C(c1ccc2sccc2c1)N1[C@H]2CC[C@H](c3cc(C(F)F)nc4ncnn34)[C@@H]1CC2` , kindly confirm whether its IC50 is beneath 600 nM.
1

Same thing, different molecule: `Cc1cc(C(=O)N2[C@H]3CC[C@H](c4cc(C(F)F)nc5ncnn45)[C@@H]2CC3)c(C)s1`
0

Same thing, different molecule: `O=C(c1ccc(Cl)c(Cl)c1)N1[C@H]2CC[C@H](c3cc(C(F)F)nc4ncnn34)[C@@H]1CC2`
0

Same thing, different molecule: `C[C@@H]1CCN(C(=O)c2ccc(F)nc2)C[C@H]1c1cc(C(F)F)nc2ncnn12`
0

Same thing, different molecule: `CC(C)n1ccc2cc(C(=O)N3[C@H]4CC[C@H](c5cc(C(F)F)nc6ncnn56)[C@@H]3CC4)ccc21`
1

Same thing, different molecule: `C[C@@H]1CCN(C(=O)c2cnccn2)C[C@H]1c1cc(C(F)F)nc2ncnn12`
0
